Origin of measurements: PubChem BioAssay (NCI)

test system: SK-OV-3 ovarian; assay: NCI tumour cell line growth inhibition, 48 h
Quick reference: TGI of the listed items.

Below: 5 compounds and their reported TGI.
Compound	Target	Observed value
O=C1c2cc([N+](=O)[O-])sc2C(=O)c2cc([N+](=O)[O-])sc21	SK-OV-3 ovarian	25.2 µM
N#CC(C(=O)O)C(c1c(Cl)cccc1Cl)C(C#N)C(=O)O (configuration not stated)	SK-OV-3 ovarian	> 100 µM
O=C(Nc1ccc(-n2ccc3c(NC(=O)c4ccccc4)nccc32)cc1)c1ccc(N2CCOCC2)c(C(F)(F)F)c1	SK-OV-3 ovarian	28.2 µM
C[C@]12CC/C(=N\O)C=C1CC[C@@H]1[C@@H]2CC[C@]2(C)C(=N/O)/C(=C/c3ccncc3)C[C@@H]12	SK-OV-3 ovarian	> 100 µM
CN(/N=C/c1ccccc1C(=O)O)C1=NCCCCN1	SK-OV-3 ovarian	> 100 µM

Exam item: Recorded TGI of CCOC(=O)C1=C(C)N(C2OC(COC(C)=O)C(OC(C)=O)C(OC(C)=O)C2OC(C)=O)C(=O)NC1c1ccccc1 (configuration not stated) , please.
Marked response: > 100 µM

Exam item: Continue with NC(Cc1c[nH]c2cc(F)ccc12)C(=O)O (configuration not stated)
Marked response: > 2500 µM

Exam item: Here is the next compound: O=S(=O)(NCCNc1cc(-c2cn(-c3ccccc3)nc2-c2cccc(O)c2)ccn1)c1ccc(Br)cc1
Marked response: 14.5 µM

Exam item: What about this compound? COc1ccc2c(c1)OC1c3ccccc3OCC21 (configuration not stated)
Marked response: > 100 µM

Exam item: Then C=C(C1=CC(=O)C(C)(C)O1)[C@@H]1CC=C([C@@H]2CC[C@H]3[C@@]2(C)CC[C@H]2C(C)(C)C(=O)[C@H](OC(=O)CC(C)(O)CC(=O)O)C[C@]32C)[C@H](O)O1 (some centres not stated) ?
Marked response: 46.9 µM

Exam item: Thanks! And CC(C)(C)C1CCC(=O)C(C(O)CC2CC(=O)N(c3ccccc3)C(=O)C2)C1 (configuration not stated) ?
Marked response: > 100 µM

Exam item: Subsequent entry: COc1c(Cl)[c]([Hg][O]C(C)=O)c(NCC(C)=O)c(OC)[c]1[Hg][O]C(C)=O
Marked response: 45.6 µM

Exam item: Cool, now Cc1ccc(-c2cc(=O)c3cc(C)c(C)c(C(=O)O)c3o2)cc1[N+](=O)[O-]
Marked response: > 100 µM

Exam item: Input COC(=O)C1=C(O)c2cc3c(cc2[C@H](c2cc(OC)c(OC)c(OC)c2)C1)OCO3
Marked response: > 100 µM

Exam item: What would you report for C#CCN(Cc1nc2cc(C(F)(F)F)ccc2nc1-c1ccccc1)c1ccc(F)cc1 ?
Marked response: > 100 µM

Exam item: // repeat for CCCCC(N)CSSCC(N)CCCC (configuration not stated) and report
Marked response: > 100 µM

Exam item: Would you mind doing CN[C@H]1CC[C@]23C[C@]24CC[C@]2(C)[C@@H]([C@H](C)N(C)C)CC[C@@]2(C)[C@@H]4CC[C@H]3C1(C)C as well?
Marked response: 38.2 µM
